# Test system: TO-N3-2 (biotin conjugate)
# PROTOCOL_DETAILS: pull-down binding Z-score (relative to library population); higher = stronger binding
# CONDITION_SET: RNA library: Library-2
Assign class by pull-down binding Z-score: not lower than 1 means true (1); lower than 1 means false (0).

Reference set, count: 3
SEQUENCE_INPUT	ANSWER_LABEL
UUGCUUAAG [hsa-mir-924]	false (0)
UGCAGAUGUGGACUGCUAAAUGCA [hsa-mir-1253]	false (0)
ACGAGAGUGAGUAGCAGGUCUC [hsa-mir-128-2]	true (1)

Task: Given the entry CAUAGAUUAUGACUGUG [SHAPE_invivo_SARS-CoV-2_Motif_206] , answer whether its pull-down binding Z-score meets or surpasses 1.
Output: false (0)

Task: Given the entry GGUAAUUAUACAGUUUCCUGUUUACC [DMSMaPseq_invitro_SARS-CoV-2_Motif_504] , answer whether its pull-down binding Z-score meets or surpasses 1.
Output: false (0)

Task: Given the entry CUUACUGUACACGUGGCUGGCAAG [hsa-mir-4428] , answer whether its pull-down binding Z-score meets or surpasses 1.
Output: true (1)

Task: Given the entry GCUGAGGUUGCGUUGACGCUCGC [hsa-mir-1292] , answer whether its pull-down binding Z-score meets or surpasses 1.
Output: true (1)

Task: Given the entry CUUAGAUUUUUCCAUCUUUGUAUCUAG [hsa-mir-29b-2] , answer whether its pull-down binding Z-score meets or surpasses 1.
Output: false (0)

---

# Test system: TO-3-N3 (biotin conjugate)
# PROTOCOL_DETAILS: pull-down binding Z-score (relative to library population); higher = stronger binding
# CONDITION_SET: RNA library: Library-2
REPORTED_PROPERTY: pull-down binding Z-score
Numbers only.

Sample answers from the record:
SEQUENCE_INPUT	TEST_TARGET	pull-down binding Z-score
AAAUAAGAGGCUAGGAUUGCCUCUUAUUU [hsa-mir-3201]	TO-3-N3 (biotin conjugate)	-0.688
AAGAAAGUUGAUGGUGUUGUCCAACAAUUACCUGAAACUUACUU [DMSMaPseq_invitro_SARS-CoV-2_Motif_358]	TO-3-N3 (biotin conjugate)	-1.04
CCACUGGGAAUGCUCCCUGAGGACGUUAUAUGAGUG [hsa-mir-4319]	TO-3-N3 (biotin conjugate)	0.544
CAACGUAAGUUG [DMSMaPseq_invitro_SARS-CoV-2_Motif_215]	TO-3-N3 (biotin conjugate)	-0.34
UUUGUGGGGCGAGGAGGGACCUGUACUAGCCAUGGUUCUGAUCACAUAUG [hsa-mir-6834]	TO-3-N3 (biotin conjugate)	3.06

// for each sequence below, give its pull-down binding Z-score
1. GCACCUGUUUGUGAC [hsa-mir-4718]
2. CCUAGUGGCUAGCCCUGGGUCUAGCAGCCUAUGGCAGUGUCUGGUAAACACUGGUGGAGUCCUGGG [hsa-mir-6745]

Output:
1. -0.491
2. -0.189

// for each sequence below, give its pull-down binding Z-score
1. CCCCGCGCGCGGACAGACACACGGACAAGUCCCGCCAGGGG [hsa-mir-4492]
2. CAGGAUUAGUGCUUAUGCUAAGAUGUCUUCACUG [hsa-mir-6773]

Output:
[-0.131, -0.824]

---

# Test system: TO-N3 (biotin conjugate)
# PROTOCOL_DETAILS: pull-down binding Z-score (relative to library population); higher = stronger binding
# CONDITION_SET: RNA library: Library-2
Note to self: class = bucket of pull-down binding Z-score, per low: < -0.4; mid: ≥ -0.4 and < -0.09; high: ≥ -0.09

Task: Using the reported pull-down binding Z-score, which band applies to UAGUCUAAUAGGGACUA [hsa-mir-5681b] ?
Output: mid

Task: Using the reported pull-down binding Z-score, which band applies to GUCGUUGACAGGACACGAGUAACUCGUCUAUCUUCUGCAGGCUGC [SARS-CoV-2-Conserved-Structured-34_Interval-80-197_Motif_3] ?
Output: high

Task: Using the reported pull-down binding Z-score, which band applies to CCAUGGGGGCCUUGCUGUGU [hsa-mir-6808] ?
Output: high

Task: Using the reported pull-down binding Z-score, which band applies to AAUCAAAAAGAGUUGAUU [DMSMaPseq_invitro_SARS-CoV-2_Motif_439] ?
Output: low

Task: Using the reported pull-down binding Z-score, which band applies to `CUAUACAUUCUUUAAGAGUUUGUGUAG` ?
Output: low

Task: Using the reported pull-down binding Z-score, which band applies to CACGAGAUUGGGUUGUGCAGAGGCUGACACUUG [hsa-mir-5004] ?
Output: high

Task: Using the reported pull-down binding Z-score, which band applies to GUCCUGACUGCGUGCCAGGGGC [hsa-mir-3650] ?
Output: mid

Task: Using the reported pull-down binding Z-score, which band applies to AUGCAUGGCUGGUGGCGGCGUGCAG [hsa-mir-6722] ?
Output: high

Task: Using the reported pull-down binding Z-score, which band applies to `GAUUUGUCUUCUACAAUUUGCCUAUGCCAACAGGAAUAGGUUUUUGUAUAUAAUUAAGUUAAUUUUCCUCUGGCUGUUAUGGCCAGUAACUUUAGCUUGUUU` ?
Output: mid

Task: Using the reported pull-down binding Z-score, which band applies to `UCUGCUCGCAUAGUGUAUACAGCUUGCUCUCAUGCCGCUGUUGAUGCACUAUGUGAGAAGGCAUUAAAAUAUUUGCCUAUAGA` ?
Output: low

Task: Using the reported pull-down binding Z-score, which band applies to CUCUUGAGUGCAUUAAAGACCUUCUAGCACGUGCUGGUAAAGCUUCAUGCACUUUGUCCGAACAACUGGACUUUAUUGACACUAAGAG [SHAPE_invitro_SARS-CoV-2_Multi_69_ComplexLevel_1] ?
Output: low

Attribution: the supplement of paper PMC11865577
